Reference for the values: the RepoRT retention time repository

assay: RP, Waters ACQUITY UPLC BEH C18, 100 × 2.1 mm, 1.7 µm, 35 °C, 0.3 mL/min, estimated dead time 0.73 min; A: water + 0.1% formic acid, pH 3; B: methanol; gradient (min/%B) 0/10 1.6/10 2/20 6/70 7/70 14/90 17.5/90 18/95 21/95; details: stereoisomer not certain
Measurement type: LC retention time (min)

These recorded examples may help you get a feel for the data.
{"columns": ["Molecule", "Endpoint unit", "LC retention time"],
 "data": [
  ["CC(O)C(=O)O (stereo not given)", "min", 1.11],
  ["NC(CCC(=O)NC(CSSCC(NC(=O)CCC(N)C(=O)O)C(=O)NCC(=O)O)C(=O)NCC(=O)O)C(=O)O (stereo not given)", "min", 1.04],
  ["CCCC(=O)OC(CC(=O)[O-])C[N+](C)(C)C (stereo not given)", "min", 2.75]
]}

1 = CC(C)CC(N)C(=O)O (stereo not given)
2 = NC(CCC(=O)NC(CS)C(=O)NCC(=O)O)C(=O)O (stereo not given)
Recorded LC retention time values differ for 1 and 2 ; which one is higher? Please identify the chosen entry by its label. 1
(1: 1.62 min, 2: 1 min)

====

assay: HILIC, Waters Atlantis Premier BEH Z-HILIC, 100 × 2.1 mm, 1.7 µm, 40 °C, 0.15 mL/min, estimated dead time 1.5 min; A: water + 20 mM ammonium carbonate + 5 µM medronic acid; B: 10% water + 90% acetonitrile + 2 mM ammonium carbonate + 0.5 µM medronic acid; gradient (min/%B) 0/97 18/55 18.1/20 21.5/20 22/97 23.5/97 25.5/97; details: stereoisomer not certain
Measurement type: LC retention time (min)

Please review the following examples before continuing.
{"columns": ["Molecule", "Measurement"],
 "data": [
  ["O=C(O)CC(O)(CC(=O)O)C(=O)O", 14.1],
  ["O=C(CO)COP(=O)(O)O [Triose phosphate]", 10.7],
  ["O=C(O)CC(C(=O)O)C(O)C(=O)O (centres undefined)", 13.9],
  ["O=C(O)CCC(O)C(=O)O (centres undefined) [2-hydroxy glutaric acid]", 10],
  ["O=C(O)CCC(=O)O", 10]
]}

A = O=C(O)C(CO)OP(=O)(O)O (centres undefined)
B = CCC(=O)OC(CC(=O)[O-])C[N+](C)(C)C (centres undefined)
Which is greater in LC retention time, the first item A or the second item B ? Give the label of your selection. A

P = C=C(OP(=O)(O)O)C(=O)O
Q = O=C(O)CCC(=O)C(=O)O
Of P and Q , which one carries the higher reported LC retention time? Your answer should be the label attached to the chosen record. P

====

assay: HILIC, Waters Atlantis Premier BEH Z-HILIC, 100 × 2.1 mm, 1.7 µm, 40 °C, 0.15 mL/min, estimated dead time 1.5 min; A: water + 20 mM ammonium carbonate + 5 µM medronic acid; B: 10% water + 90% acetonitrile + 2 mM ammonium carbonate + 0.5 µM medronic acid; gradient (min/%B) 0/95 18/50 18.1/20 21.5/20 22/95 23.5/95 25.5/95; conditions: stereoisomer not certain
Measurement type: LC retention time (min)

{"columns": ["Molecule", "LC retention time, min"],
 "data": [
  ["O=C(O)CC(O)(CC(=O)O)C(=O)O", 12.9],
  ["O=C(O)C(CO)OP(=O)(O)O (centres undefined)", 11.6],
  ["CCC(=O)OC(CC(=O)[O-])C[N+](C)(C)C (centres undefined)", 6.36],
  ["C=C(OP(=O)(O)O)C(=O)O", 12.5],
  ["O=C(CO)COP(=O)(O)O [Triose phosphate]", 9.62],
  ["O=C(O)CCC(=O)O", 9.06],
  ["O=C(O)CCC(O)C(=O)O (centres undefined) [2-hydroxy glutaric acid]", 8.97]
]}

I = O=C(O)CCC(=O)C(=O)O
II = O=C(O)CC(C(=O)O)C(O)C(=O)O (centres undefined)
Of I versus II , which is the one with smaller reported LC retention time? Answer by quoting the chosen item's label. I
